Taken from patent US20230257372A1.

target.of.assay: human recombinant HDAC6 (Homo sapiens)
Construct: purchased Calbiochem Inc. 382180
Sequence (Q9UBN7 1-1215): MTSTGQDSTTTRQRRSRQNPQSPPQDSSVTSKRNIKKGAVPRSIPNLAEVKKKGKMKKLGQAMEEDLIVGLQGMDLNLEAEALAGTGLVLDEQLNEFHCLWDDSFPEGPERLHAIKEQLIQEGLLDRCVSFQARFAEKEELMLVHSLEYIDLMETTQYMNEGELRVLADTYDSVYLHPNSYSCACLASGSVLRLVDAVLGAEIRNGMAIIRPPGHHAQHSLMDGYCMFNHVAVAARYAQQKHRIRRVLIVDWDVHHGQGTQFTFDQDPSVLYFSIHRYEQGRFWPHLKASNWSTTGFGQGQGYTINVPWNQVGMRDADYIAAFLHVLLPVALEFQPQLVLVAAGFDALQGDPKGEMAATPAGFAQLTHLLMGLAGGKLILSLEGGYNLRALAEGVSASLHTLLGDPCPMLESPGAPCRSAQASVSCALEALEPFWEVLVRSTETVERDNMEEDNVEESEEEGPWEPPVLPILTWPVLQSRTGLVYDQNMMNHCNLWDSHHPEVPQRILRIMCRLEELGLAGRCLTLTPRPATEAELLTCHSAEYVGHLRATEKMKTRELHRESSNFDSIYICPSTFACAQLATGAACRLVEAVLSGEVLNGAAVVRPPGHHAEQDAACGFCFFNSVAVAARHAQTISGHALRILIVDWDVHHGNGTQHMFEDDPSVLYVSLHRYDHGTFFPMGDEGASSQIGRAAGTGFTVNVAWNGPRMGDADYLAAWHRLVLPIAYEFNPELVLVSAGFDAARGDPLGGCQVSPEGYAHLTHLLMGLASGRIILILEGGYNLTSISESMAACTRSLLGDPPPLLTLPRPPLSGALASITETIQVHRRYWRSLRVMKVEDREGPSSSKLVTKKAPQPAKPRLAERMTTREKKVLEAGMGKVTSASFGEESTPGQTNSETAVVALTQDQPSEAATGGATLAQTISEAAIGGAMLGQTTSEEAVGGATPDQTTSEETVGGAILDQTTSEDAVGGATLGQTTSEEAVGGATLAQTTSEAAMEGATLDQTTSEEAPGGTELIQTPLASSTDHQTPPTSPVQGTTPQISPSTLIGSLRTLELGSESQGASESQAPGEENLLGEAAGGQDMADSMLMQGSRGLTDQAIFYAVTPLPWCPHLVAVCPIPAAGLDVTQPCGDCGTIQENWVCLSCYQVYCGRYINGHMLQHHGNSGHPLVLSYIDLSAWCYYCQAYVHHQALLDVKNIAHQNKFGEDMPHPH
assay.text: HDAC6 enzyme activity inhibition (HDAC Fluorimetric Drug Discovery Kit)
Assay type: biochemical
details: HDAC6 over HDAC1
Note: every record was labeled by where its HDAC6 selectivity (fold) sits among lower level: < 600 fold; middle level: ≥ 600 fold and < 1000 fold; upper level: ≥ 1000 fold

CCN1CCN(Cc2ccccc2-c2cn(Cc3ccc(-c4nnc(C(F)F)o4)cc3F)nn2)CC1	lower level
FC(F)c1nnc(-c2ccc(Cn3cc(-c4ccc(CNC5COC5)cc4)nn3)cc2)o1	middle level
CC1CCN(Cc2cc(Cl)cc(-c3cn(Cc4ncc(-c5nnc(C(F)F)o5)cc4F)nn3)c2)CC1	lower level
CN(C)[C@@H]1CCN(Cc2ccc(-c3cn(Cc4ccc(-c5nnc(C(F)F)o5)cc4F)nn3)cc2)C1	upper level
CN(C)Cc1cccc(-c2cn(Cc3ncc(-c4nnc(C(F)F)o4)cc3F)nn2)c1	lower level

Hi, small favor: classify FC(F)c1nnc(-c2ccc(Cn3cc(-c4cccc(C5CN(C6CCC6)C5)c4)nn3)nc2)o1 by its HDAC6 selectivity (fold) when you get a moment.
upper level

Hi, small favor: classify Fc1cc(-c2nnc(C(F)F)o2)cnc1Cn1cc(-c2ccccc2CN2CCCC2)nn1 by its HDAC6 selectivity (fold) when you get a moment.
lower level

Hi, small favor: classify Fc1cc(-c2nnc(C(F)F)o2)cnc1Cn1cc(-c2ccccc2CN2CCC2)nn1 by its HDAC6 selectivity (fold) when you get a moment.
lower level
